Tested on: mice
procedure-summary: 55 °C warm-water tail-withdrawal assay, i.c.v. administration
Assay type: in vivo, Male ICR mice
assay-conditions: mouse
Listed below: dose for maximal antinociception values for each entry.
Answer format: numeric, nmol implied, no suffix.

Use these answered entries as a reference point.
compound: CN1CC[C@]23c4c5ccc(O)c4O[C@H]2c2ncc(-c4ccc(Cl)cc4)cc2C[C@@]3(OC/C=C/c2ccccc2)[C@H]1C5 [17g]
dose for maximal antinociception / nmol: 1

compound: Oc1ccc2c3c1O[C@H]1c4ncc(-c5ccc(Cl)cc5)cc4C[C@@]4(OCCCc5ccccc5)[C@@H](C2)N(CC2CC2)CC[C@]314 [17d]
dose for maximal antinociception / nmol: 1

compound: CN1CC[C@]23c4c5ccc(O)c4O[C@H]2c2ncc(-c4ccc(Cl)cc4)cc2C[C@@]3(OCCCc2ccccc2)[C@H]1C5 [17h]
dose for maximal antinociception / nmol: 1

Asked: What is its dose for maximal antinociception for mice? Entry: CN1CC[C@]23c4c5ccc(O)c4O[C@H]2[C@@H](O)C=C[C@H]3[C@H]1C5 [Morphine, reference compound]
Given back: 10

Asked: What is its dose for maximal antinociception for mice? Entry: CO[C@@]12Cc3cc(-c4ccc(Cl)cc4)cnc3[C@@H]3Oc4c(O)ccc5c4[C@@]31CCN(C)[C@@H]2C5 [17e]
Given back: 10

Reference source for all entries: paper PMC3499949
